Consider the following compounds; for each one, report its viability, T/C.
- Test system: 653999-131-R-J2-PDC complex spheroids, growth inhibition
- procedure.details: Anticancer human tumor 653999-131-R-J2-PDC patient-derived lung adenocarcinoma cell line growth inhibition [RAS]
- experimental.context: compound 0.01 µM; active compounds read low

Below, each entry is followed by its recorded viability, T/C result.
compound: O=C(c1ccc(F)c(F)c1Nc1ccc(I)cc1F)N1CC(O)([C@@H]2CCCCN2)C1
system.under.test: 653999-131-R-J2-PDC complex spheroids, growth inhibition
viability, T/C: 77.5% [middle of 4 runs]
--
compound: CCN1CCN(Cc2ccc(Nc3ncc(F)c(-c4cc(F)c5nc(C)n(C(C)C)c5c4)n3)nc2)CC1
system.under.test: 653999-131-R-J2-PDC complex spheroids, growth inhibition
viability, T/C: 96.6% [middle of 4 runs]
--
compound: C=CC(=O)Nc1cc(Nc2nccc(-c3cn(C)c4ccccc34)n2)c(OC)cc1N(C)CCN(C)C
system.under.test: 653999-131-R-J2-PDC complex spheroids, growth inhibition
viability, T/C: 89.8% [middle of 4 runs]

Consider the record given below.
Considering Nc1ccn(C2OC(CO)C(O)C2(F)F)c(=O)n1 (centres undefined) , its viability, T/C with 653999-131-R-J2-PDC complex spheroids, growth inhibition was recorded as 76.4% [middle of 4 runs]

* * *

- System: 653999-131-R-J2-PDC complex spheroids, growth inhibition
- procedure.details: Anticancer human tumor 653999-131-R-J2-PDC cell line growth inhibition [RAS];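 note: spheroids exposed to the agents for seven days before the readout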
- experimental.context: second compound 1 µM; first compound 3.16 µM; active compounds read low
quantity.kind: viability, T/C (%)
Answers are plain numbers, in %.

Below, each entry is followed by its recorded viability, T/C result.
compound: CC(=O)OC12COC1CC(O)C1(C)C(=O)C(O)C3=C(C)C(OC(=O)C(O)C(NC(=O)OC(C)(C)C)c4ccccc4)CC(O)(C(OC(=O)c4ccccc4)C21)C3(C)C (centres undefined) + C=CC(=O)N1CCN(c2nc(OCC3CCCN3C)nc3c(F)c(-c4nc(N)cc(C)c4C(F)(F)F)c(Cl)cc23)C(C)C1
viability, T/C [%]: 62.9

compound: C[C@@H](NC(=O)c1ncnc(N)c1Cl)c1ncc(C(=O)Nc2cc(C(F)(F)F)c(Cl)cn2)s1 + C=CC(=O)N1CCN(c2nc(OCC3CCCN3C)nc3c(F)c(-c4nc(N)cc(C)c4C(F)(F)F)c(Cl)cc23)C(C)C1
viability, T/C [%]: 87.5

compound: CC1(O)CCCC1n1c(=O)c(C(F)F)cc2cnc(NC3CCN(S(C)(=O)=O)CC3)nc21 (centres undefined) + C#Cc1c(F)ccc2cc(O)cc(-c3ncc4c(N5CC6CCC(C5)N6)nc(OCC56CCCN5CC(F)C6)nc4c3F)c12
viability, T/C [%]: 34.4

Sure, the documented viability, T/C for C[C@@H](NC(=O)c1ncnc(N)c1Cl)c1ncc(C(=O)Nc2cc(C(F)(F)F)c(Cl)cn2)s1 + C#Cc1c(F)ccc2cc(O)cc(-c3ncc4c(N5CC6CCC(C5)N6)nc(OCC56CCCN5CC(F)C6)nc4c3F)c12 is 60.1

* * *

- System: 653999-131-R-J2-PDC complex spheroids, growth inhibition
- procedure.details: Anticancer human tumor 653999-131-R-J2-PDC cell line growth inhibition [RAS];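 note: spheroids exposed to the agents for seven days before the readout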
- experimental.context: second compound 0.316 µM; first compound 0.1 µM; active compounds read low
Consider the following compounds; for each one, report its viability, T/C.
Numbers only, in %.

compound: CC1(O)CCCC1n1c(=O)c(C(F)F)cc2cnc(NC3CCN(S(C)(=O)=O)CC3)nc21 (stereo not given) + C#Cc1c(F)ccc2cc(O)cc(-c3ncc4c(N5CC6CCC(C5)N6)nc(OCC56CCCN5CC(F)C6)nc4c3F)c12
quantity.kind: viability, T/C
experimental.result: 42.7

Please state, for each entry, its recorded viability, T/C.
1. C[C@@H](NC(=O)c1ncnc(N)c1Cl)c1ncc(C(=O)Nc2cc(C(F)(F)F)c(Cl)cn2)s1 + C#Cc1c(F)ccc2cc(O)cc(-c3ncc4c(N5CC6CCC(C5)N6)nc(OCC56CCCN5CC(F)C6)nc4c3F)c12
2. Nc1ccn(C2OC(CO)C(O)C2(F)F)c(=O)n1 (stereo not given) + C=CC(=O)N1CCN(c2nc(OCC3CCCN3C)nc3c(F)c(-c4nc(N)cc(C)c4C(F)(F)F)c(Cl)cc23)C(C)C1
3. NC1c2ccccc2OC12CCN(c1cnc3c(N4CCCc5ncccc54)n[nH]c3n1)CC2 (stereo not given) + C=CC(=O)N1CCN(c2nc(OCC3CCCN3C)nc3c(F)c(-c4nc(N)cc(C)c4C(F)(F)F)c(Cl)cc23)C(C)C1
4. Cc1nc(N2CCC3(CC2)COC(C)C3N)c(CO)nc1Sc1ccnc(N)c1Cl (stereo not given) + C=CC(=O)N1CCN(c2nc(OCC3CCCN3C)nc3c(F)c(-c4nc(N)cc(C)c4C(F)(F)F)c(Cl)cc23)C(C)C1

Out:
75
48.2
89.8
82

* * *

- System: 653999-131-R-J2-PDC complex spheroids, growth inhibition
- procedure.details: Anticancer human tumor 653999-131-R-J2-PDC cell line growth inhibition [RAS];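 note: spheroids exposed to the agents for seven days before the readout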
- experimental.context: second compound 1 µM; first compound 0.316 µM; active compounds read low
Consider the following molecules; for each one, report its viability, T/C.
Give bare numbers, in %.

Below, each entry is followed by its recorded viability, T/C result.
molecule: CC(Nc1ccc2c(c1)OCCn1cc(N3C(=O)OCC3C(F)F)nc1-2)C(N)=O (stereo not given) + C#Cc1c(F)ccc2cc(O)cc(-c3ncc4c(N5CC6CCC(C5)N6)nc(OCC56CCCN5CC(F)C6)nc4c3F)c12
system.under.test: 653999-131-R-J2-PDC complex spheroids, growth inhibition
viability, T/C (%): 28.1
--
molecule: NC1c2ccccc2OC12CCN(c1cnc3c(N4CCCc5ncccc54)n[nH]c3n1)CC2 (stereo not given) + C#Cc1c(F)ccc2cc(O)cc(-c3ncc4c(N5CC6CCC(C5)N6)nc(OCC56CCCN5CC(F)C6)nc4c3F)c12
system.under.test: 653999-131-R-J2-PDC complex spheroids, growth inhibition
viability, T/C (%): 33.9
--
molecule: CCN1CCN(Cc2ccc(Nc3ncc(F)c(-c4cc(F)c5nc(C)n(C(C)C)c5c4)n3)nc2)CC1 + C#Cc1c(F)ccc2cc(O)cc(-c3ncc4c(N5CC6CCC(C5)N6)nc(OCC56CCCN5CC(F)C6)nc4c3F)c12
system.under.test: 653999-131-R-J2-PDC complex spheroids, growth inhibition
viability, T/C (%): 29.9

Please state, for each entry, its recorded viability, T/C.
1. C[C@@H](NC(=O)c1ncnc(N)c1Cl)c1ncc(C(=O)Nc2cc(C(F)(F)F)c(Cl)cn2)s1 + C#Cc1c(F)ccc2cc(O)cc(-c3ncc4c(N5CC6CCC(C5)N6)nc(OCC56CCCN5CC(F)C6)nc4c3F)c12
2. O=C(c1ccc(F)c(F)c1Nc1ccc(I)cc1F)N1CC(O)([C@@H]2CCCCN2)C1 + C#Cc1c(F)ccc2cc(O)cc(-c3ncc4c(N5CC6CCC(C5)N6)nc(OCC56CCCN5CC(F)C6)nc4c3F)c12

Out:
72.5
19.1

* * *

Consider the following compounds; for each one, report its viability, T/C.
- System: 653999-131-R-J2-PDC complex spheroids, growth inhibition
- procedure.details: Anticancer human tumor 653999-131-R-J2-PDC cell line growth inhibition [RAS];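 note: spheroids exposed to the agents for seven days before the readout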
- experimental.context: second compound 0.00949 µM; first compound 0.316 µM; active compounds read low
Numbers only, in %.

Below, each entry is followed by its recorded viability, T/C result.
compound: CC1(O)CCCC1n1c(=O)c(C(F)F)cc2cnc(NC3CCN(S(C)(=O)=O)CC3)nc21 (centres undefined) + CCn1c(-c2cc(N3CCN(C)CC3)cnc2C(C)OC)c2c3cc(ccc31)-c1csc(n1)CC(NC(=O)C1CC1C)C(=O)N1CCCC(N1)C(=O)OCC(C)(C)C2
system.under.test: 653999-131-R-J2-PDC complex spheroids, growth inhibition
viability, T/C [%]: 28.5

compound: Cc1nc(N2CCC3(CC2)COC(C)C3N)c(CO)nc1Sc1ccnc(N)c1Cl (centres undefined) + CCn1c(-c2cccnc2C(C)OC)c2c3cc(ccc31)N1CCOC(CC(NC(=O)C(C(C)C)N(C)C(=O)C3(F)CCN(C(=O)C#CC(C)(C)N(C)C)CC3)C(=O)N3CCCC(N3)C(=O)OCC(C)(C)C2)C1
system.under.test: 653999-131-R-J2-PDC complex spheroids, growth inhibition
viability, T/C [%]: 84.8

compound: CCN1CCN(Cc2ccc(Nc3ncc(F)c(-c4cc(F)c5nc(C)n(C(C)C)c5c4)n3)nc2)CC1 + CCn1c(-c2cc(N3CCN(C)CC3)cnc2C(C)OC)c2c3cc(ccc31)-c1csc(n1)CC(NC(=O)C1CC1C)C(=O)N1CCCC(N1)C(=O)OCC(C)(C)C2
system.under.test: 653999-131-R-J2-PDC complex spheroids, growth inhibition
viability, T/C [%]: 34

compound: Cc1nc(N2CCC3(CC2)COC(C)C3N)c(CO)nc1Sc1ccnc(N)c1Cl (centres undefined) + CCn1c(-c2cc(N3CCN(C)CC3)cnc2C(C)OC)c2c3cc(ccc31)-c1csc(n1)CC(NC(=O)C1CC1C)C(=O)N1CCCC(N1)C(=O)OCC(C)(C)C2
system.under.test: 653999-131-R-J2-PDC complex spheroids, growth inhibition
viability, T/C [%]: 37.4

compound: CCC(CC)c1cc(NC2CCC(N)C2)n2nccc2n1 (centres undefined) + CCn1c(-c2cc(N3CCN(C)CC3)cnc2C(C)OC)c2c3cc(ccc31)-c1csc(n1)CC(NC(=O)C1CC1C)C(=O)N1CCCC(N1)C(=O)OCC(C)(C)C2
system.under.test: 653999-131-R-J2-PDC complex spheroids, growth inhibition
viability, T/C [%]: 45.6

Please state, for each entry, its recorded viability, T/C.
1. NC1c2ccccc2OC12CCN(c1cnc3c(N4CCCc5ncccc54)n[nH]c3n1)CC2 (centres undefined) + CCn1c(-c2cc(N3CCN(C)CC3)cnc2C(C)OC)c2c3cc(ccc31)-c1csc(n1)CC(NC(=O)C1CC1C)C(=O)N1CCCC(N1)C(=O)OCC(C)(C)C2
2. CC(C)NCC(C(=O)N1CCN(c2ncnc3c2C(C)CC3O)CC1)c1ccc(Cl)cc1 (centres undefined) + CCn1c(-c2cc(N3CCN(C)CC3)cnc2C(C)OC)c2c3cc(ccc31)-c1csc(n1)CC(NC(=O)C1CC1C)C(=O)N1CCCC(N1)C(=O)OCC(C)(C)C2
3. C=CC(=O)Nc1cc(Nc2nccc(-c3cn(C)c4ccccc34)n2)c(OC)cc1N(C)CCN(C)C + CCn1c(-c2cc(N3CCN(C)CC3)cnc2C(C)OC)c2c3cc(ccc31)-c1csc(n1)CC(NC(=O)C1CC1C)C(=O)N1CCCC(N1)C(=O)OCC(C)(C)C2
4. NC1c2ccccc2OC12CCN(c1cnc3c(N4CCCc5ncccc54)n[nH]c3n1)CC2 (centres undefined) + CCn1c(-c2cccnc2C(C)OC)c2c3cc(ccc31)N1CCOC(CC(NC(=O)C(C(C)C)N(C)C(=O)C3(F)CCN(C(=O)C#CC(C)(C)N(C)C)CC3)C(=O)N3CCCC(N3)C(=O)OCC(C)(C)C2)C1

Out:
[28.5, 38.4, 31.6, 67.6]

Reference for the values: PubChem BioAssay AID2060886
